# STUDY TARGET: T1, TIGIT fusion protein with Fc or mFc tag (human, UniProt Q495A1 22-141)
# T1 construct: extracellular domain; also called TIGIT-Fc; TIGIT-mFc
# T1 sequence (looked up): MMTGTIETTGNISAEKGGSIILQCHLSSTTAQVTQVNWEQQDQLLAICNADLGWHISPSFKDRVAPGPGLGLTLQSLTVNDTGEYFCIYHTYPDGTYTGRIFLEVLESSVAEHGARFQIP
# TEST SUMMARY: HTRF blocking assay: TIGIT-Fc or TIGIT-mFc with biotinylated CD155 as the blocked ligand, ratio 665/620
PROPERTY NAME: IC50 (read off the curve)

[[record]]
binder = "h1708-02 (antibody, human IgG4 S228P, kappa, V domains shown, also called humanized TIGIT antibody h1708-02) VH: EVQLVQSGAEVKKPGASVKVSCKASGYTFTNYWMHWVRQAPGQGLEWMGRIDPDSTGSKYNEKFKTRVTMTVDTSTSTVYMELSSLRSEDTAVYYCAREGAYGYYFDYWGQGTLVTVSS VL: DIQMTQSPSSLSASVGDRVTITCRASENIYSYLAWYQQKPGKAPKLLIYNARTLAEGVPSRFSGSGSGTDFTLTISSLQPEDFATYYCQYHSGSPLPFGGGTKVEIKR"
result = "~1 nM"

[[record]]
binder = "h1708-03 (antibody, human IgG4 S228P, kappa, V domains shown, also called humanized TIGIT antibody h1708-03) VH: EVQLVQSGAEVKKPGASVKVSCKASGYTFTNYWMHWVRQAPGQGLEWIGRIDPDSTGSKYNEKFKTRVTMTVDTSTSTAYMELSSLRSEDTAVYYCAREGAYGYYFDYWGQGTLVTVSS VL: DIQMTQSPSSLSASVGDRVTITCRASENIYSYLAWYQQKPGKAPKLLIYNARTLAEGVPSRFSGSGSGTDFTLTISSLQPEDFATYYCQYHSGSPLPFGGGTKVEIKR"
result = "~1 nM"

[[record]]
binder = "h1708-05 (antibody, human IgG4 S228P, kappa, V domains shown, also called humanized TIGIT antibody h1708-05) VH: EVQLVQSGAEVKKPGASVKVSCKASGYTFTNYWMHWVRQAPGQGLEWMGRIDPDSTGSKYNEKFKTRVTMTVDTSTSTVYMELSSLRSEDTAVYYCAREGAYGYYFDYWGQGTLVTVSS VL: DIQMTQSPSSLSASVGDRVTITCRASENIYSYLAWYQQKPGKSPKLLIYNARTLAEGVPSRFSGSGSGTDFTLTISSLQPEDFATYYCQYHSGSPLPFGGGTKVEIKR"
result = "~1 nM"

